# assay_target: T1, human IL-17E (human, UniProt Q9H293 33-177)
# T1 construct: expressed in E. coli; also called hIL-17E
# T1 sequence (looked up): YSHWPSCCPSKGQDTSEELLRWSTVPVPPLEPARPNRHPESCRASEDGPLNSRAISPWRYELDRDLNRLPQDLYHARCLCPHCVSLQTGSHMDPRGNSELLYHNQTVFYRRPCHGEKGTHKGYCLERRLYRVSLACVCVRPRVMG
# assay_notes: SPR, cytokine on chip
reported_property: binding result

1) 03C07 (VHH, Class 2) VHH: EVQLVESGGGLVQAGGSLRLSCAASGFTFDDYAIGWFRQAPGKEREAVSCFSSSDGSIYYADSVKGRFTISSDNAKNTVYLQMNSLKPEDTAVYYCAGGGGSYYYTQLNYCYDMDYWGKGTQVTVSS; no binding
2) 08H01 (VHH, Class 3) VHH: EVQLVESGGGLVQAGGSLRLSCGASGGTFSSYATGWFRQAPGKEREFVAVLRWSDSHTAYADSVEGRFTISRDGAKNTVYLQMSSLKPEDTAIYYCTTGTRPGEWHYWGQGTQVTVSS; no binding
3) 04B09 (VHH, Class 2; also called 04B9) VHH: EVQLVESGGGLVQPGGSLRLSCAASGFTLGYYAIGWFRQAPGKEREGVSCDSSSDGDTYYANSVKGRFTISTDNGKNTVYLQMNSLKPEDTAVYYCATCTDWNYDYWGQGTQVTVSS; no binding
4) 01A01 (VHH, Class 4) VHH: EVQLVESGGGLVQAGGSLRLSCAASGFTFDDYDIGWFRQAPGKEREGVSCFTSSDGRTFYADSVKGRFTVSADNAKNTVYLQMNSLEPEDTAVYFCAAVNTFDESAYAAFACYDVVRWGQGTQVTVSS; no binding
